- method: Chromatographic hydrophobicity index of compound at pH 2.0 by reversed-phase HPLC analysis
- Assay type: ADME
measurement_name: CHI
# output: bare number, no unit

Previously resolved entries follow.
{"molecule": "CN(Cc1ccc(COc2ccc3c(CO)cc(=O)oc3c2)cc1)Cc1ccsc1", "measurement_name": "CHI", "reading": 50.7}
{"molecule": "CN(Cc1ccc(COc2ccc3c(CO)cc(=O)oc3c2)cc1)Cc1ccco1", "measurement_name": "CHI", "reading": 47.2}
{"molecule": "CN(Cc1ccc(COc2ccc3c(CO)cc(=O)oc3c2)cc1)Cc1cccnc1", "measurement_name": "CHI", "reading": 32.9}
{"molecule": "CN(CCc1cccs1)Cc1ccc(COc2ccc3c(CO)cc(=O)oc3c2)cc1", "measurement_name": "CHI", "reading": 53.7}

// moving on: another record for CHI
Give a short answer stating reported CHI for CN(CCc1ccsc1)Cc1ccc(COc2ccc3c(CO)cc(=O)oc3c2)cc1 .
54.3

====

- method: Metabolic stability in mouse liver microsomes assessed as intrinsic clearance at 0.5 uM measured upto 30 mins in presence of NADPH by LC-MS/MS analysis
- Type: ADME, Microsome
- condition_summary: read-out: CLH
measurement_name: microsomal CLint at 0.5 µM (µL/min/mg)
Response body: numeric value in µL/min/mg, unit text excluded.

The cases that follow already have their microsomal CLint at 0.5 µM on record.
{"molecule": "CN(CCc1ccsc1)Cc1ccc(COc2ccc3c(CO)cc(=O)oc3c2)cc1", "measurement_name": "microsomal CLint at 0.5 µM", "reading": 103}
{"molecule": "CN(Cc1ccc(COc2ccc3c(CO)cc(=O)oc3c2)cc1)Cc1ccsc1", "measurement_name": "microsomal CLint at 0.5 µM", "reading": 61.2}

Would you kindly look at the next entry?
Look up and state reported microsomal CLint at 0.5 µM for CN(CCc1cccnc1)Cc1ccc(COc2ccc3c(CO)cc(=O)oc3c2)cc1
233

====

- method: Chromatographic hydrophobicity index of compound at pH 7.4 by reversed-phase HPLC analysis
- Format: ADME
measurement_name: CHI
In your answer, state the number alone without any accompanying words.

{"molecule": "CN(Cc1ccc(COc2ccc3c(CO)cc(=O)oc3c2)cc1)Cc1cncnc1", "CHI": 62.6}
{"molecule": "CN(Cc1ccccc1)Cc1ccc(COc2ccc3c(CO)cc(=O)oc3c2)cc1", "CHI": 98}
{"molecule": "CN(Cc1ccc(COc2ccc3c(CO)cc(=O)oc3c2)cc1)Cc1nccs1", "CHI": 76.7}
{"molecule": "CN(CCc1cccs1)Cc1ccc(COc2ccc3c(CO)cc(=O)oc3c2)cc1", "CHI": 92.9}
{"molecule": "CN(Cc1ccc(COc2ccc3c(CO)cc(=O)oc3c2)cc1)Cc1ccsc1", "CHI": 90.3}
{"molecule": "CN(Cc1ccc(COc2ccc3c(CO)cc(=O)oc3c2)cc1)Cc1ccco1", "CHI": 83.5}

Please indicate CHI recorded for CN(CCc1cccnc1)Cc1ccc(COc2ccc3c(CO)cc(=O)oc3c2)cc1
65.3

Report CHI for CN(Cc1ccc(COc2ccc3c(CO)cc(=O)oc3c2)cc1)Cc1cccnc1
70.6

Using the record for CN(Cc1ccc(COc2ccc3c(CO)cc(=O)oc3c2)cc1)Cc1cscn1 , state its measured CHI.
68.3

Respond only with CHI recorded for CN(Cc1ccc(COc2ccc3c(CO)cc(=O)oc3c2)cc1)Cc1cccs1
96.5

Give the reported value of CHI for this record: CN(CCc1ccsc1)Cc1ccc(COc2ccc3c(CO)cc(=O)oc3c2)cc1
85.5

Answer with the recorded CHI of CN(Cc1ccc(COc2ccc3c(CO)cc(=O)oc3c2)cc1)Cc1ncc[nH]1 only.
51.6

Ref: ChEMBL document CHEMBL5550168
